# Assayed Target: cynomolgus monkey ABCC1 (UniProt Q864R9 1-1531)
# Sequence (Q864R9 whole entry): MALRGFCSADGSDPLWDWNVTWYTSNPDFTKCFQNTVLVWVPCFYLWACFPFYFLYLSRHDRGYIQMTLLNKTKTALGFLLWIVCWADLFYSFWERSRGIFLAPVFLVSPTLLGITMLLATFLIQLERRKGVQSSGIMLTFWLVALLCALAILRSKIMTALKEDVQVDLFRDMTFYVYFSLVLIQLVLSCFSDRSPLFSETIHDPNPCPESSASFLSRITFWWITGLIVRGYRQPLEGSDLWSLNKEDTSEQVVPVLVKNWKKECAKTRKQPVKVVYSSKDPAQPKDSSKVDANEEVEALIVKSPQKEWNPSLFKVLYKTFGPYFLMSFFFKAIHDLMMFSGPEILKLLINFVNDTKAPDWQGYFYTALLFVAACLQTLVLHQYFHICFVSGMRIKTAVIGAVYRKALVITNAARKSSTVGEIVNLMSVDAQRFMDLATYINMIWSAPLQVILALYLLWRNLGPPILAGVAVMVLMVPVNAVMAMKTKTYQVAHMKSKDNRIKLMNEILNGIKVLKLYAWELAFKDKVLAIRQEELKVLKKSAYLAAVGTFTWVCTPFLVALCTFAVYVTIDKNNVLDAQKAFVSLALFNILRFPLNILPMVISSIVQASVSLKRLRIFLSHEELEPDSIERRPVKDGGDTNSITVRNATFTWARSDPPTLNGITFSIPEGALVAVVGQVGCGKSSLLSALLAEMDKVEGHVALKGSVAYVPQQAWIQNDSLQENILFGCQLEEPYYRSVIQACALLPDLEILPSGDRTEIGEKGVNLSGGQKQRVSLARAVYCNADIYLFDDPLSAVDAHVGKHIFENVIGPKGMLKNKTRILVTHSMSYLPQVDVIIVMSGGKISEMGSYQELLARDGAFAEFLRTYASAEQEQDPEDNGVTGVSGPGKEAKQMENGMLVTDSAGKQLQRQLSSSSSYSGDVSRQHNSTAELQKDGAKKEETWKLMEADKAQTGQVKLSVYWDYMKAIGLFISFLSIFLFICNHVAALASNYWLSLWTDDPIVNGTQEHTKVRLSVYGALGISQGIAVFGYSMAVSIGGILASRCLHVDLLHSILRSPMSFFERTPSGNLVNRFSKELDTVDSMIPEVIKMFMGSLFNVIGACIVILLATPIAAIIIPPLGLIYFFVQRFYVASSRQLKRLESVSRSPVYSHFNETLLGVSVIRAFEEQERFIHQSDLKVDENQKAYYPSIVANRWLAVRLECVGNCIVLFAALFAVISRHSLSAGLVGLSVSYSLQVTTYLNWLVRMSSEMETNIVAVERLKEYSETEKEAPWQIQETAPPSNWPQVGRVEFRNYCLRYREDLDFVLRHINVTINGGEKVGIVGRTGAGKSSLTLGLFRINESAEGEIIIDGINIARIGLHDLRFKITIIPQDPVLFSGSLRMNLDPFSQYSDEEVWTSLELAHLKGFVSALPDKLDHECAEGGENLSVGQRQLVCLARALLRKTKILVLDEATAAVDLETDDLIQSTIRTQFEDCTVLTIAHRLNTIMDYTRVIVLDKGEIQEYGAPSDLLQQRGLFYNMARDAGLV
# Run Description: FACS titration on C6-cC1 cells
Quantity: Kd (nM)
Give bare numbers, in nM.

Examples with their reported Kd follow.
binder="C1.845 (antibody, V domains shown) VH: EVQLVESGPGLVQPSQTLSLTCTVSGFSLTNNGVSWVRQPPGKGLEWIAAISSGGSIYYNLAFKSRLSISRNTSKGQVLLKMNSLQTEDTAMYFCARHRGYYGYNWGYFDYWGQGASVTVSS VL: NIQLTQSPSLLSASVGDRVTLSCKGSQNINNYLAWYQQKLGEAPKLLIYKTNSLQTGIPSRFSGSGSGSDYTLTISSLHSEDLATYYCYQYNDGYTFGAGTKLELK" unit_of_measure=nM endpoint_value=20.1
binder="C1.830B (antibody, V domains shown) VH: EVQLKESGPGLVRPSQTLSLTCSVSGFSLTNYNVHWVRQPTGKGLEWMGIIWTGGYTDYNSDLKSRLSITRDTSKSQVFLKMNGLQTEDVATYYCARERHTMGITKSWYFDYWGQGASVTVSS VL: DILMTQSPASLSASLGETISIECLASEGIFSYLGWYQQKPGKSPQLLIYGANSLQAGVPSRFSGSGSGTQYSLKISSMQPEDEGDYFCQQSYKFPVTFGSGTKLELK" unit_of_measure=nM endpoint_value=8.6
binder="C1.847 (antibody, V domains shown) VH: EVQLKESGPGLVQPSQTLSLTCTVSGFSLTNNGVSWVRQPPGKGLEWIAAISSGGNIYHNSALKSRLSISRNTAQSQVLLKMNSLQTEDTAMYFCARHRGYYGYNWGYFDYWGQGTLVTVSS VL: NIQLTQSPSLLSASVGDRVTLSCKGSQNIYNYLAWYQQKLGEAPKLLIYKTNSLQTGIPSRFSGSGSGTDYTLTISSLHSEDLATYYCCQYNNGYTFGAGTKLELK" unit_of_measure=nM endpoint_value=23.3
binder="C1.841 (antibody, V domains shown) VH: EVQLLESGPGLVQPSQTLSLTCTVSGFSLTNNGVSWVRQPPGKGLEWVAAMSSGGNIYYNSAFKSRLSISRHTSKSQVLLKMNSLQTEDTAMYFCARHRGYYGYNWGYFDYWGQGVMVTVSS VL: NIQLTQSPSLLSASVGDSVSLRCKGSQNIYNYLAWYQQKLGEAPKLLIYKTNNLQTGIPSRFSGSGSGTDYTLTISSLNSEDLATYYCCQYNNGYTFGAGTKLELK" unit_of_measure=nM endpoint_value=42.3

Proceeding to the next binder to report its Kd.
Q: Field request: Kd | item: C1.855 (antibody, V domains shown) VH: EVQLKESGPGLVQPSQTLSLTCTVSGFSLTSNGVSWVRQPPGKGLEWIAAISNGGNIYYNSAFKSRLSISRHTSKSQVLLKMNSLQTEDTAMYFCARHRGYYGYNWGYFDYWGQGASVTVSS VL: NIQLTQSPSLLSASVGDRVTLSCKGSQNINNYLGWYQQKLGEAPRLLIYKTNSLQTGIPSRFSGSGSGTDYTLTISSLHSEDLATYYCYQYNNGYTFGAGTKLELK
Result: 279
